Data origin, for the record: PubChem BioAssay AID1996

- condition_details: buffer; pH 7.4; 200.0 µM

compound | solubility kinetic
COc1ccc(N2CCN(C(=O)c3cccnc3)CC2)c([N+](=O)[O-])c1 | 36.6 µg/mL
Cc1ccc(CN(C)C(=O)CCNS(=O)(=O)c2ccccc2)o1 | > 50.5 µg/mL
CCC(CC)C(=O)Nc1cccc(C(=O)NC(C)(C)C)c1 | > 43.6 µg/mL
COc1cccc2c(Cl)c(CCCl)c(C)nc12 | 1.1 µg/mL
CC(=O)c1ccccc1Oc1ncnc(N)c1[N+](=O)[O-] | > 41.1 µg/mL
CCOC(=O)C1CCN(C(=O)Nc2c(-c3ccccc3)noc2C)CC1 | 52.1 µg/mL
O=C(CC1CCCC1)N1CCN(S(=O)(=O)c2ccccc2)CC1 | > 50.5 µg/mL
Nc1cccnc1Oc1ccccc1F | > 30.6 µg/mL
COCCN(C(=O)c1ccccc1OC)c1nnc(C)s1 | > 46.1 µg/mL
N#Cc1ccc(CN2CCN(C(=O)C3CC(=O)N(c4ccccc4F)C3)CC2)cc1 (centres undefined) | > 61 µg/mL
CCc1ccccc1N(CC(=O)N1CCCCCC1)S(C)(=O)=O | 43.5 µg/mL
CN1CCN(c2ccncc2S(=O)(=O)N2CCCCC2)CC1 | > 48.7 µg/mL
COc1ccc(OC)c(N(CC(=O)N2CCCC2)S(C)(=O)=O)c1 | > 51.4 µg/mL
CC1CN(CC(=O)Nc2ccc(S(N)(=O)=O)cc2)CC(C)O1 (centres undefined) | > 49.1 µg/mL
